B1: library; numbered along this chain (parent)
chain: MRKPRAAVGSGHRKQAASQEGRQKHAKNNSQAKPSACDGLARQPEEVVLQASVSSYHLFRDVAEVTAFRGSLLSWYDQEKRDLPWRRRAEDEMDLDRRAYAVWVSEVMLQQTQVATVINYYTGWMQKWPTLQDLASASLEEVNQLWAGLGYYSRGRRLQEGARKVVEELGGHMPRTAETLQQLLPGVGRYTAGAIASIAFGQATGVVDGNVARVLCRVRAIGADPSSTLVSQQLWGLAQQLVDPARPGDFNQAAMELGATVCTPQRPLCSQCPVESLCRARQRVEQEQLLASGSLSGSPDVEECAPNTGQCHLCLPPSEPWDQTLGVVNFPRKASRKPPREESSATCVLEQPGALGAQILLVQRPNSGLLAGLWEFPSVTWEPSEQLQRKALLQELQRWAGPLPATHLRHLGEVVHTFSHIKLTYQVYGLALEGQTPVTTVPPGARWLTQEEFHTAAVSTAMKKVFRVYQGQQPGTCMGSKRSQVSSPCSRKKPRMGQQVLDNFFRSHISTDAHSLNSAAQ

Variants of: B1
Test: 8OG:A repair function score (normalized; synonymous = 0, nonsense = -1) (normalized log-likelihood score); higher = more repair activity (WT-like);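 note: cells sorted at 72 h after reporter transfection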
Details: with 8OG:A DNA repair reporter (GFP) in HEK-293 MUTYH KO cells
Please use the following 8OG:A repair function score ranges when assigning a class: bottom (below -0.7), middle (-0.7 to below -0.02), top (-0.02 or more)

Worked cases, answers included:
>>> answer_label("K464P")
"bottom"
>>> answer_label("A259M")
"bottom"
>>> answer_label("W124N")
"bottom"
>>> answer_label("C262D")
"bottom"
>>> answer_label("A519K")
"top"
>>> answer_label("D91M")
"top"

In: // bin(item) where item = D91K
Out: top

In: And S71A ?
Out: middle

In: And G201A ?
Out: middle

Data provenance: the supplement of paper PMC11908140
